// reported resistance factor (IC50 CEM/VBL vs IC50 of the parent cell line) for each item listed
Test system: vinblastine-resistant sub-cell line (CCRF-CEM/VBL)
Test: in vitro cytotoxicity, PrestoBlue assay
Format: cell-based, human
Details: number in brackets
Express your answer as a number followed by its unit.

> print(dat)
                                smiles.text  result
1  Cc1c(CO)c(CO)c2c3ccccc3c(N3CCC(N4CCCCC4)CC3)nn12  1.09 ×

Form field: resistance factor (IC50 CEM/VBL vs IC50 of the parent cell line) recorded for `CCNC(=O)OCc1c(COC(=O)NCC)c2c3cc4ccccc4cc3c(N3CCCC3)nn2c1C` with vinblastine-resistant sub-cell line (CCRF-CEM/VBL) (enter value) 0.59 ×

So what resistance factor (IC50 CEM/VBL vs IC50 of the parent cell line) did `CCNC(=O)OCc1c(COC(=O)NCC)c2c3ccccc3c(N3CCCCC3)nn2c1C` get with vinblastine-resistant sub-cell line (CCRF-CEM/VBL)? 0.96 ×

Requested read-out resistance factor (IC50 CEM/VBL vs IC50 of the parent cell line), target or system vinblastine-resistant sub-cell line (CCRF-CEM/VBL), entry `Cc1c(CO)c(CO)c2c3cc4ccccc4cc3c(N(C)C)nn12` 0.53 ×

Can you look up resistance factor (IC50 CEM/VBL vs IC50 of the parent cell line) on vinblastine-resistant sub-cell line (CCRF-CEM/VBL) for `CCNC(=O)OCc1c(COC(=O)NCC)c2c3ccccc3c(N3CCOCC3)nn2c1-c1ccc(OC)cc1` ? 1.18 ×

// map `CCNC(=O)OCc1c(COC(=O)NCC)c2c3cc4ccccc4cc3c(N(C)C)nn2c1C` to recorded resistance factor (IC50 CEM/VBL vs IC50 of the parent cell line) (system: vinblastine-resistant sub-cell line (CCRF-CEM/VBL)) 0.71 ×

Given the entry `CCc1c(CO)c(CO)c2c3ccccc3c(N3CCOCC3)nn12` , what resistance factor (IC50 CEM/VBL vs IC50 of the parent cell line) was observed with vinblastine-resistant sub-cell line (CCRF-CEM/VBL)? 0.84 ×

For vinblastine-resistant sub-cell line (CCRF-CEM/VBL), provide resistance factor (IC50 CEM/VBL vs IC50 of the parent cell line) of `CCNC(=O)OCc1c(COC(=O)NCC)c2c3cc4ccccc4cc3c(N3CCC(N4CCCCC4)CC3)nn2c1C` please. 1.82 ×

What value of resistance factor (IC50 CEM/VBL vs IC50 of the parent cell line) on vinblastine-resistant sub-cell line (CCRF-CEM/VBL) does `Cc1c(CO)c(CO)c2c3cc4ccccc4cc3c(N3CCOCC3)nn12` have? 0.86 ×
